# System: 699152-130-R-J1-PDC complex spheroid growth
# assay-comment: Anticancer human tumor 699152-130-R-J1-PDC patient-derived pancreatic carcinoma cell line growth inhibition [AhR]
# reported-conditions: second compound 1 µM; first compound 0.03 µM; stronger effect = lower value
observation-type: viability, T/C (%)
Answers are plain numbers, in %.

Please give viability, T/C, item by item, for the list that follows.
1. CCc1c2c(nc3ccc(O)cc13)-c1cc3c(c(=O)n1C2)COC(=O)[C@]3(O)CC + Cc1ccccc1N=Nc1ccc(NC(=O)c2ccnn2C)c(C)c1
2. CCc1c2c(nc3ccc(O)cc13)-c1cc3c(c(=O)n1C2)COC(=O)[C@]3(O)CC + CC(CO)NC(=O)c1cc(-c2ccc(Cl)cc2)nn(-c2cnn(C)c2)c1=O
3. CCN(c1cc(-c2ccc(CN3CCOCC3)cc2)cc(C(=O)NCc2c(C)cc(C)[nH]c2=O)c1C)C1CCOCC1 + Cc1ccccc1N=Nc1ccc(NC(=O)c2ccnn2C)c(C)c1

Reply:
1: 45; 2: 51.4; 3: 105

====

# System: 699152-130-R-J1-PDC complex spheroid growth
# assay-comment: Anticancer human tumor 699152-130-R-J1-PDC cell line growth inhibition [AhR];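 note: compound exposure lasted 7 days after spheroids had grown for 3 days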
# reported-conditions: second compound 0.316 µM; first compound 0.1 µM; stronger effect = lower value
Answer each item with its documented viability, T/C.
Numbers only, in %.

compound	viability, T/C, %
O=C(C=Cc1cccc(S(=O)(=O)Nc2ccccc2)c1)NO + CC(CO)NC(=O)c1cc(-c2ccc(Cl)cc2)nn(-c2cnn(C)c2)c1=O	107

Batch lookup, viability, T/C per entry.
1. CC1COCCN1c1cc(C2(S(C)(=N)=O)CC2)nc(-c2ccnc3[nH]ccc23)n1 (stereo unspecified) + CC(CO)NC(=O)c1cc(-c2ccc(Cl)cc2)nn(-c2cnn(C)c2)c1=O
2. CC(C)c1c(-c2ccccc2)nc2c(C#N)c[nH]n2c1=O + Cc1ccccc1N=Nc1ccc(NC(=O)c2ccnn2C)c(C)c1

Reply:
[94.2, 86.2]

====

Please go through the items and note down their pIC50.
# Test system: 699152-130-R-J1-PDC complex spheroid growth
# assay-comment: Anticancer human tumor 699152-130-R-J1-PDC cell line growth inhibition [AhR];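 note: compound exposure lasted 7 days after spheroids had grown for 3 days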
# reported-conditions: curve of first compound; second compound 0.1 µM
Answers are plain numbers, as −log10 of the molar value.

Below are worked cases with known answers.
molecule	pIC50
CC(C)CC(NC(=O)C(Cc1ccccc1)NC(=O)c1cnccn1)B(O)O (configuration not stated) + Cc1cncc(-c2nc(NCCc3c[nH]c4ccccc34)c3ncn(C(C)C)c3n2)c1	7.82
Nc1ccccc1NC(=O)c1ccc(CNC(=O)OCc2cccnc2)cc1 + Cc1ccccc1N=Nc1ccc(NC(=O)c2ccnn2C)c(C)c1	5.12

Next, consider the following molecule.
// recorded pIC50 for CC(C)CC(NC(=O)C(Cc1ccccc1)NC(=O)c1cnccn1)B(O)O (configuration not stated) + Cc1ccccc1N=Nc1ccc(NC(=O)c2ccnn2C)c(C)c1 : 7.81

====

# Tested on: 699152-130-R-J1-PDC complex spheroid growth
# assay-comment: Anticancer human tumor 699152-130-R-J1-PDC cell line growth inhibition [AhR]; active = viability on the fitted dose curve at most 10% of control; inactive = the rest;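 note: compound exposure lasted 7 days after spheroids had grown for 3 days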
# reported-conditions: second compound 3.16 µM; first compound 0.03 µM
Mark one answer only. Choices: active, inactive

Task item: In this assay, the call recorded for CC(C)CC(NC(=O)C(Cc1ccccc1)NC(=O)c1cnccn1)B(O)O (configuration not stated) + Cc1ccccc1N=Nc1ccc(NC(=O)c2ccnn2C)c(C)c1 was what?
Reply: active

Task item: Record request — test call for O=C(C=Cn1cnc(-c2cc(C(F)(F)F)cc(C(F)(F)F)c2)n1)NNc1cnccn1 + CC(CO)NC(=O)c1cc(-c2ccc(Cl)cc2)nn(-c2cnn(C)c2)c1=O
Reply: inactive

Task item: Please state the recorded outcome for this compound: Nc1ncn(C2CC(O)C(CO)S2)c(=O)n1 (configuration not stated) + Cc1ccccc1N=Nc1ccc(NC(=O)c2ccnn2C)c(C)c1
Reply: inactive

Task item: Please share the test call associated with CCN(c1cc(-c2ccc(CN3CCOCC3)cc2)cc(C(=O)NCc2c(C)cc(C)[nH]c2=O)c1C)C1CCOCC1 + Cc1cncc(-c2nc(NCCc3c[nH]c4ccccc34)c3ncn(C(C)C)c3n2)c1 .
Reply: inactive

Task item: Recorded test outcome, item Nc1ncn(C2CC(O)C(CO)S2)c(=O)n1 (configuration not stated) + CC(CO)NC(=O)c1cc(-c2ccc(Cl)cc2)nn(-c2cnn(C)c2)c1=O
Reply: inactive
